Assay: Stability of the seven components in rat plasma QC samples
Format: physicochemical
Settings: high QC level, n = 6
assay readout: Three freeze–thaw cycles, RE

* C=C(CC[C@@H](C(=O)O)[C@H]1[C@H](O)C[C@@]2(C)C3=CC[C@H]4C(C)(C)[C@@H](O)CC[C@]4(C)C3=CC[C@]12C)C(C)C [Dehydrotumulosic acid, dehydrotumulosic acid] | 5.5%
* O=C(/C=C/c1ccc(O[C@@H]2O[C@H](CO)[C@@H](O)[C@H](O)[C@H]2O)cc1)c1ccc(O)cc1O | 3.9%
* O=C1C[C@@H](c2ccc(O[C@@H]3O[C@H](CO)[C@@H](O)[C@H](O)[C@H]3O)cc2)Oc2cc(O)ccc21 | 4.1%
* CC1(C)[C@@H](O)CC[C@]2(C)[C@H]3C(=O)C=C4[C@@H]5C[C@@](C)(C(=O)O)CC[C@]5(C)CC[C@@]4(C)[C@]3(C)CC[C@@H]12 | 2.2%
* CC1(C)[C@@H](O[C@H]2O[C@H](C(=O)O)[C@@H](O)[C@H](O)[C@H]2O[C@@H]2O[C@H](C(=O)O)[C@@H](O)[C@H](O)[C@H]2O)CC[C@]2(C)[C@H]3C(=O)C=C4[C@@H]5C[C@@](C)(C(=O)O)CC[C@]5(C)CC[C@@]4(C)[C@]3(C)CC[C@@H]12 | 9.7%
* O=C(O)/C=C/c1ccccc1 | −11.1%
* C=C1CCC[C@]2(C)C[C@]3(O)OC(=O)C(C)=C3C[C@@H]12 [Atractylenolide III, atractylenolide III] | −3.8%
